- Test system: Salmonella thyphimurium strain TA 97
- testDetails: Ames mutagenicity test (back mutation)
- Format: cell-based
- Parameters: key: -: no back mutation; (+): slight back mutuation; +: increasing back mutation; ++: increasing back mutation
- conditionDescription: with (+) S9-Mix

smilesRepresentation	experimentalSystem	Ames test result, TA 97
COc1ccc(N)cc1N	Salmonella thyphimurium strain TA 97	+
CCOc1ccc(N)cc1N	Salmonella thyphimurium strain TA 97	+
Nc1ccc(OC(F)(F)C(F)F)c(N)c1	Salmonella thyphimurium strain TA 97	(+)
Cc1cc(OC(F)(F)C(F)F)c(N)cc1N	Salmonella thyphimurium strain TA 97	-

* * *

- Tested on: Salmonella thyphimurium strain TA 100
- testDetails: Ames mutagenicity test (back mutation)
- Format: cell-based
- Design: key: -: no back mutation; (+): slight back mutuation; +: increasing back mutation; ++: increasing back mutation
- conditionDescription: with (+) S9-Mix
reportedEndpoint: Ames test result, TA 100

smilesRepresentation	reportedEndpoint	measValue
COc1ccc(N)cc1N	Ames test result, TA 100	(+)
CCOc1ccc(N)cc1N	Ames test result, TA 100	-
Cc1cc(OC(F)(F)C(F)F)c(N)cc1N	Ames test result, TA 100	-
Nc1ccc(OC(F)(F)C(F)F)c(N)c1	Ames test result, TA 100	-
